Molecular target: Neurotensin receptor type 1 (Homo sapiens)
Sequence (P30989 whole entry): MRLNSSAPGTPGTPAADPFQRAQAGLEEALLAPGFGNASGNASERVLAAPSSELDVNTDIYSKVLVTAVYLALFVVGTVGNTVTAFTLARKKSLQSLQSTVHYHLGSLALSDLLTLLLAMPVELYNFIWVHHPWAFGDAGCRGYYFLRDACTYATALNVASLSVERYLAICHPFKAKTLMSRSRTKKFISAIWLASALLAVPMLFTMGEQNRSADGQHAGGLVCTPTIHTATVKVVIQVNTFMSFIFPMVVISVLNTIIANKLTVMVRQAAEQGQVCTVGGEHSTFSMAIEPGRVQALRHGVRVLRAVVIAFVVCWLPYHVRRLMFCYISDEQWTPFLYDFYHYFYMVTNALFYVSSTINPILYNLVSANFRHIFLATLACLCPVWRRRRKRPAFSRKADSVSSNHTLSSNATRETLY
Assay: Displacement of [3H]NT(8-13) from human NTSR1 F2.65C mutant expressed in HEK293 cell membranes assessed as amount of blocking at 1 uM incubated for 120 mins by radioligand depletion assay
Settings: Cell membrane
*1 amine or outer side, *2 acyl side, *3 side chain or, on linkers, in order; H or OH if unused. Where a SMILES comes first, the peptide text is derived from it. Cysteamine = C(CS[*:2])N[*:1]
Measured property: Activity (%)

INSERT INTO results (compound, test_system, observed_value) VALUES
  ('CC(C)C[C@H](NC(=O)[C@@H](CCSSCCN)NC(=O)[C@H](Cc1ccc(O)cc1)NC(=O)[C@@H]1CCCN1C(=O)[C@H](CCCNC(=N)N)NC(=O)[C@@H](N)CCCNC(=N)N)C(=O)O', 'Neurotensin receptor type 1 (Homo sapiens)', 88);

(a) CC[C@H](C)[C@H](NC(=O)[C@H](Cc1ccc(O)cc1)NC(=O)[C@@H]1CCCN1C(=O)[C@H](CCCNC(=N)N)NC(=O)[C@@H](N)CCCNC(=N)N)C(=O)N[C@@H](CC(C)C)C(=O)N[C@H](CCSSCCN)C(=O)O
(b) CC(C)C[C@H](NC(=O)[C@H](CSSCCN)NC(=O)[C@H](Cc1ccc(O)cc1)NC(=O)[C@@H]1CCCN1C(=O)[C@H](CCCNC(=N)N)NC(=O)[C@@H](N)CCCNC(=N)N)C(=O)O
(c) CC[C@H](C)[C@H](NC(=O)[C@H](Cc1ccc(O)cc1)NC(=O)[C@@H]1CCCN1C(=O)[C@H](CCCNC(=N)N)NC(=O)[C@@H](N)CCCNC(=N)N)C(=O)N[C@@H](CC(C)C)C(=O)N[C@@H](CSSCCN)C(=O)O (H-RRPYILC(Cysteamine)-OH)
Ask | Number of compounds to sort: 3. Sort criterion: Activity, ascending. The labels, placed in the requested order, form the answer.
Reply | a, c, b

###

Biological target: UniProtKB P30989
Assay: Displacement of [3H]neurotensin from human NTSR1 expressed in CHO cell membranes by radioligand depletion assay
Set-up: species or system Cell membrane
*1 amine or outer side, *2 acyl side, *3 side chain or, on linkers, in order; H or OH if unused. Where a SMILES comes first, the peptide text is derived from it. Cysteamine = C(CS[*:2])N[*:1]
Measured property: Ki (µM)

(a) CC(C)C[C@H](NC(=O)[C@H](CSSCCN)NC(=O)[C@H](Cc1ccc(O)cc1)NC(=O)[C@@H]1CCCN1C(=O)[C@H](CCCNC(=N)N)NC(=O)[C@@H](N)CCCNC(=N)N)C(=O)O
(b) CC[C@H](C)[C@H](NC(=O)[C@H](Cc1ccc(O)cc1)NC(=O)[C@@H]1CCCN1C(=O)[C@H](CCCNC(=N)N)NC(=O)[C@@H](N)CCCNC(=N)N)C(=O)N[C@@H](CC(C)C)C(=O)N[C@@H](CSSCCN)C(=O)O (H-RRPYILC(Cysteamine)-OH)
Ask | Form: Entry with minimum Ki (choose one): a / b State the label of the item chosen.
Reply | b
(b: 0.0024 µM, a: 0.049 µM)
